# assay target: Alpha-2C adrenergic receptor (Homo sapiens) (UniProt P18825)
# Sequence (P18825 whole entry, looked up): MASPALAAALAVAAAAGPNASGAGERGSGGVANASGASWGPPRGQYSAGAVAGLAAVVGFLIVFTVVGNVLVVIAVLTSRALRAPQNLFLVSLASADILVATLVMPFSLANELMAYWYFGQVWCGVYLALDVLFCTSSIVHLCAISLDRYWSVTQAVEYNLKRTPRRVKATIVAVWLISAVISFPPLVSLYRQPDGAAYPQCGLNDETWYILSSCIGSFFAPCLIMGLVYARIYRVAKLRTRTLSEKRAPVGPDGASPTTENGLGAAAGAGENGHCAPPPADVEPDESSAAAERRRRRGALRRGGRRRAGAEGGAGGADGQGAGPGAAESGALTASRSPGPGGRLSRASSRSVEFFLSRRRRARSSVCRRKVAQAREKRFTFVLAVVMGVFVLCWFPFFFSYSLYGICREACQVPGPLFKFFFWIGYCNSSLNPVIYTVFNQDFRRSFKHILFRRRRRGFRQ
# experimental details: modulators of alpha2C/GIRK thallium flux, primary screen, cell-based, HEK293 alpha2C/GIRK1/2 (AID 624);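 further: slope of fluorescence ratio to pre-addition baseline per second over 15 to 24 s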
# study conditions: thallium flux BTC fluorescence, at 10 µM, actives lie on both sides
endpoint: slope
A bare number is all that is needed in reply.

{"molecule": "COCC(=O)N(Cc1cc2cc(OC)ccc2[nH]c1=O)c1ccccc1", "slope": 0.00281}
{"molecule": "CC(C)C(NC(=O)c1ccc(S(=O)(=O)N2CCOCC2)cc1)c1nc2ccccc2[nH]1 (stereo not given)", "slope": 0.00591}
{"molecule": "CC1Cn2c(nnc2-c2ccc(F)cc2)S1 (stereo not given)", "slope": 0.00604}

Given the molecule COc1ccccc1-c1nnc(SCC(=O)NC2CCCCC2)o1 and test system Alpha-2C adrenergic receptor (Homo sapiens) (UniProt P18825), the measured slope is 0.00636

Given the molecule CCCC(=O)Nc1c2c(nn1-c1ccc(OC)cc1)CS(=O)C2 (stereo not given) and test system Alpha-2C adrenergic receptor (Homo sapiens) (UniProt P18825), the measured slope is 0.00523

Given the molecule Cc1ccc(Cl)cc1N1CCN(C(=O)C2CCCN(S(=O)(=O)c3cnc[nH]3)C2)CC1 (stereo not given) and test system Alpha-2C adrenergic receptor (Homo sapiens) (UniProt P18825), the measured slope is 0.00714

Given the molecule COc1ccc(N2CCN(C(=O)c3c(-c4ccccc4)noc3C)CC2)cc1 and test system Alpha-2C adrenergic receptor (Homo sapiens) (UniProt P18825), the measured slope is 0.00611

Given the molecule Cc1c(C#N)sc2nc(-c3ccccc3)nc(N3CCCC3)c12 and test system Alpha-2C adrenergic receptor (Homo sapiens) (UniProt P18825), the measured slope is 0.011

Given the molecule COC(=O)CN(c1ccc(C)c(Cl)c1)S(C)(=O)=O and test system Alpha-2C adrenergic receptor (Homo sapiens) (UniProt P18825), the measured slope is 0.00698

Given the molecule CCOC(=O)N1CCN(C(=O)c2ccc3c(SCC(=O)O)c4c(nc3c2)CCCC4)CC1 and test system Alpha-2C adrenergic receptor (Homo sapiens) (UniProt P18825), the measured slope is 0.00656

Given the molecule CC1CCN(C(=O)CN2C(=O)C(C)(C)Oc3ccc(C(=O)NC4CCCC4)cc32)CC1 and test system Alpha-2C adrenergic receptor (Homo sapiens) (UniProt P18825), the measured slope is 0.00666

---

# experimental details: inhibitors of TNFa-induced NFkB p65 translocation, primary screen, imaging, HUVEC, MLSMR starter and 10KST1 sets (AID 438);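 further: compound added about 3h40 before a 20 min TNFalpha stimulation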
# study conditions: HUVEC TNFa-induced p65 nuclear translocation; measured here: nuclei count (cytotoxicity indicator), at 2.08 µM
// not met strictly below 600 in cell count; met otherwise

Examples from the recorded data:
{"compound": "COc1cc(S(=O)(=O)N2CCC(N3CCCCC3)CC2)ccc1-n1cnnn1", "category": "not met"}
{"compound": "CCNC(=O)C1CC(=O)N(Cc2ccc3c(c2)OCO3)C(=Nc2ccc(F)cc2)S1 (stereo not given)", "category": "met"}
{"compound": "Cn1c(=O)n(CC(=O)Nc2ccccc2)c2ccccc21", "category": "not met"}
{"compound": "Cc1ccc(S(=O)(=O)/C(C#N)=C/c2c(N3CCN(C)CC3)nc3ccccn3c2=O)cc1", "category": "not met"}
{"compound": "CC/C(O)=C(/C#N)c1nnc2n1CCCCC2", "category": "not met"}

Say whether CCc1nc2c(sc3nc(N4CCOCC4)c4c(c32)CC(C)(C)OC4)c(=O)o1 shows cell count of 600 or more. not met

Say whether Cc1cccn2c(=O)c3cc(C(N)=S)c(=N)n(CCCOC(C)C)c3nc12 shows cell count of 600 or more. met

Say whether CC(C)Cn1c(=O)c(C2=NS(=O)(=O)c3ccccc3N2)c(O)c2ccccc21 shows cell count of 600 or more. not met

Say whether COc1ccc2nc3oc(C(=O)NC4CCN(Cc5ccccc5)CC4)cc3cc2c1 shows cell count of 600 or more. not met

---

# assay target: Voltage-gated potassium channel subunit beta-2 (Rattus norvegicus) (UniProt P62483)
# Sequence (P62483 whole entry, looked up): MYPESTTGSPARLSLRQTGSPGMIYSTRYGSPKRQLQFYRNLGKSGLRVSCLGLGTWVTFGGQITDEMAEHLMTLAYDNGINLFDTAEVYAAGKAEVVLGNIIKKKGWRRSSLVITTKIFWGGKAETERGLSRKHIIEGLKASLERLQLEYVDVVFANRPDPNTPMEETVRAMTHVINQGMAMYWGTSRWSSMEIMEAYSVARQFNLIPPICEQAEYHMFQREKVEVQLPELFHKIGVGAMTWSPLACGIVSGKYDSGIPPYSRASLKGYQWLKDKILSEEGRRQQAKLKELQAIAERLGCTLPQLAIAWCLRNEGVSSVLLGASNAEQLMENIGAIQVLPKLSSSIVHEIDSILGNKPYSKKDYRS
# experimental details: KvBeta enzyme negative modulators, primary screen, biochemical, NADPH fluorescence (AID 622);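 further: slope of raw intensity against log time taken from 70 to 1610 s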
# study conditions: recombinant KvBeta, 4-cyanobenzaldehyde reduction, at 10 µM, stronger effect = higher value
endpoint: fluorescence slope
A bare number is all that is needed in reply.

Here is how some molecules turned out for fluorescence slope.
{"molecule": "O=C1c2ccccc2C(=O)N1c1ncccn1", "assay target": "Voltage-gated potassium channel subunit beta-2 (Rattus norvegicus) (UniProt P62483)", "fluorescence slope": -0.454}
{"molecule": "COc1ccc(-c2ccc(-c3nnn(CC(C)=O)n3)cc2)cc1", "assay target": "Voltage-gated potassium channel subunit beta-2 (Rattus norvegicus) (UniProt P62483)", "fluorescence slope": -0.516}
{"molecule": "CCOC(=O)C1CCN(C(=O)CCCCn2c(=O)[nH]c3ccccc3c2=O)CC1", "assay target": "Voltage-gated potassium channel subunit beta-2 (Rattus norvegicus) (UniProt P62483)", "fluorescence slope": -0.563}
{"molecule": "NC(=O)COC(=O)c1ccc(S(=O)(=O)N2CCCCCC2)cc1", "assay target": "Voltage-gated potassium channel subunit beta-2 (Rattus norvegicus) (UniProt P62483)", "fluorescence slope": -0.348}

Now take the following molecule into account.
The molecule listed as Cc1ccc2[nH]c3c(c2c1)CN(C(=O)CN1CC(C)OC(C)C1)CC3 (stereo not drawn) has a reported fluorescence slope of -0.466

---

# assay target: Voltage-gated potassium channel subunit beta-2 (Rattus norvegicus) (UniProt P62483)
# experimental details: KvBeta enzyme negative modulators, primary screen, biochemical, NADPH fluorescence (AID 622);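 further: slope of raw intensity against log time taken from 70 to 1610 s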
# study conditions: recombinant KvBeta, 4-cyanobenzaldehyde reduction, at 10 µM, stronger effect = higher value
endpoint: fluorescence slope
A bare number is all that is needed in reply.

Here is how some molecules turned out for fluorescence slope.
{"molecule": "Cc1cccc(OCCN2CSC(=S)N(C)C2)c1", "assay target": "Voltage-gated potassium channel subunit beta-2 (Rattus norvegicus) (UniProt P62483)", "endpoint": "fluorescence slope", "experimental value": -0.494}
{"molecule": "CCc1cc(C(=O)OC)c(NC(=O)CCC(=O)O)s1", "assay target": "Voltage-gated potassium channel subunit beta-2 (Rattus norvegicus) (UniProt P62483)", "endpoint": "fluorescence slope", "experimental value": -0.392}
{"molecule": "Cc1oc(-c2ccccc2F)nc1CS(=O)(=O)CC(=O)NCc1ccco1", "assay target": "Voltage-gated potassium channel subunit beta-2 (Rattus norvegicus) (UniProt P62483)", "endpoint": "fluorescence slope", "experimental value": -0.539}
{"molecule": "CCOc1ccc(Cn2nnc(C(=O)NCc3ccc(OC)cc3)c2N)cc1", "assay target": "Voltage-gated potassium channel subunit beta-2 (Rattus norvegicus) (UniProt P62483)", "endpoint": "fluorescence slope", "experimental value": -0.536}
{"molecule": "COc1ccc(-n2ncc3c(N4CCC(C(N)=O)CC4)ncnc32)cc1", "assay target": "Voltage-gated potassium channel subunit beta-2 (Rattus norvegicus) (UniProt P62483)", "endpoint": "fluorescence slope", "experimental value": -0.385}
{"molecule": "Cc1nc2sc(C(c3ccc(Br)cc3)N3CC(C)OC(C)C3)c(O)n2n1 (stereo unspecified)", "assay target": "Voltage-gated potassium channel subunit beta-2 (Rattus norvegicus) (UniProt P62483)", "endpoint": "fluorescence slope", "experimental value": -0.437}
{"molecule": "O=C(NCC(F)(F)F)Nc1cccnc1", "assay target": "Voltage-gated potassium channel subunit beta-2 (Rattus norvegicus) (UniProt P62483)", "endpoint": "fluorescence slope", "experimental value": -0.318}
{"molecule": "COc1ccc(C(CNC(=O)c2ccc(OCC3CCCO3)cc2)N2CCOCC2)cc1 (stereo unspecified)", "assay target": "Voltage-gated potassium channel subunit beta-2 (Rattus norvegicus) (UniProt P62483)", "endpoint": "fluorescence slope", "experimental value": -0.49}
{"molecule": "COC(=O)c1ccc(CNC(=O)CSc2nc3sc(C)c(C)c3c(=O)n2C)o1", "assay target": "Voltage-gated potassium channel subunit beta-2 (Rattus norvegicus) (UniProt P62483)", "endpoint": "fluorescence slope", "experimental value": -0.434}
{"molecule": "O=C(CN1C(=O)CCSc2ccccc21)Nc1ccccc1", "assay target": "Voltage-gated potassium channel subunit beta-2 (Rattus norvegicus) (UniProt P62483)", "endpoint": "fluorescence slope", "experimental value": -0.447}

Given the molecule CCn1c(SCC(=O)C(C)(C)C)nnc1-c1cnccn1 and test system Voltage-gated potassium channel subunit beta-2 (Rattus norvegicus) (UniProt P62483), the measured fluorescence slope is -0.51

Given the molecule CCC1CCCN1Cn1cnc2c([nH]c3ccc(OC)cc32)c1=O (stereo unspecified) and test system Voltage-gated potassium channel subunit beta-2 (Rattus norvegicus) (UniProt P62483), the measured fluorescence slope is -0.396

Given the molecule Cc1ccc(C)c(C(=O)CC2(O)C(=O)Nc3ccccc32)c1 (stereo unspecified) and test system Voltage-gated potassium channel subunit beta-2 (Rattus norvegicus) (UniProt P62483), the measured fluorescence slope is -0.416

Given the molecule Cc1ccccc1-n1c(SCc2c(C)noc2C)nnc1-c1ccncc1 and test system Voltage-gated potassium channel subunit beta-2 (Rattus norvegicus) (UniProt P62483), the measured fluorescence slope is -0.304

Given the molecule CC1CCN(c2nc3c(c(=O)n(C)c(=O)n3C)n2Cc2ccccc2)CC1 and test system Voltage-gated potassium channel subunit beta-2 (Rattus norvegicus) (UniProt P62483), the measured fluorescence slope is -0.39

Given the molecule COC(=O)c1ccccc1NC(=O)Cn1ccnc1 and test system Voltage-gated potassium channel subunit beta-2 (Rattus norvegicus) (UniProt P62483), the measured fluorescence slope is -0.591

Given the molecule c1ccc(-c2oc3ncnc(NCCN4CCOCC4)c3c2-c2ccccc2)cc1 and test system Voltage-gated potassium channel subunit beta-2 (Rattus norvegicus) (UniProt P62483), the measured fluorescence slope is -0.512

Given the molecule Cn1c(SCC(=O)Nc2ccc3c(c2)OCO3)nnc1-c1cnccn1 and test system Voltage-gated potassium channel subunit beta-2 (Rattus norvegicus) (UniProt P62483), the measured fluorescence slope is -0.366

Given the molecule COCCCn1c(C)nc2c(c1=O)c1nc3ccccc3nc1n2CCc1ccccc1 and test system Voltage-gated potassium channel subunit beta-2 (Rattus norvegicus) (UniProt P62483), the measured fluorescence slope is -0.341

Given the molecule Cc1cc2nncn2c(Cc2ccccc2)n1 and test system Voltage-gated potassium channel subunit beta-2 (Rattus norvegicus) (UniProt P62483), the measured fluorescence slope is -0.428

Given the molecule COc1ccccc1NC(=O)c1c(C)cc(=O)oc1C and test system Voltage-gated potassium channel subunit beta-2 (Rattus norvegicus) (UniProt P62483), the measured fluorescence slope is -0.409

Given the molecule Cc1c(C#N)c2ccccc2n1CC(=O)N1CCc2ccccc2C1 and test system Voltage-gated potassium channel subunit beta-2 (Rattus norvegicus) (UniProt P62483), the measured fluorescence slope is -0.581

Given the molecule FC(F)(F)c1cccc(N2CCN(Cc3cccnc3)CC2)c1 and test system Voltage-gated potassium channel subunit beta-2 (Rattus norvegicus) (UniProt P62483), the measured fluorescence slope is -0.505

Given the molecule COc1ccc(CCNc2oc(COc3ccc(F)cc3)nc2C#N)cc1 and test system Voltage-gated potassium channel subunit beta-2 (Rattus norvegicus) (UniProt P62483), the measured fluorescence slope is -0.608

Given the molecule CCS(=O)(=O)N1CCC(C(=O)NC2CCCCCCC2)CC1 and test system Voltage-gated potassium channel subunit beta-2 (Rattus norvegicus) (UniProt P62483), the measured fluorescence slope is -0.378

src = PubChem BioAssay
